target: T1, huCD4-HIS (human, UniProt P01730 26-390, limits assumed)
T1 construct: not shown: HIS tag
assay_procedure: ELISA binning; competitor ibalizumab; 100 ng/mL huCD4-HIS, anti-HIS HRP detection; background 45, max binding 3000000
observable: Ibalizumab ELISA binning signal

INSERT INTO assay_data (binder, readout_number) VALUES
  ('75110_03D16A (antibody, V domains shown, Tested here as non-clonal hybridoma supernatant from AlivaMab Mouse Kappa mice (detected with anti-mouse Fc and anti-human kappa)) VH: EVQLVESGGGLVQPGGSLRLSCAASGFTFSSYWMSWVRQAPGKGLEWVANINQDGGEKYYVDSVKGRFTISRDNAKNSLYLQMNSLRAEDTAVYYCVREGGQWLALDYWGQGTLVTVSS VL: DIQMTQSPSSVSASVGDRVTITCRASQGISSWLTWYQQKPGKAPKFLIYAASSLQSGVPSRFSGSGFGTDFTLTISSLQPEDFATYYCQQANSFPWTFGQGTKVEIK', 663000),
  ('75110_05B13A (antibody, V domains shown, Tested here as non-clonal hybridoma supernatant from AlivaMab Mouse Kappa mice (detected with anti-mouse Fc and anti-human kappa)) VH: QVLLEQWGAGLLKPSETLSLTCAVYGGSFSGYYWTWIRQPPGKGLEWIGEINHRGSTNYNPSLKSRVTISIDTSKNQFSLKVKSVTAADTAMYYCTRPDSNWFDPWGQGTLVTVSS VL: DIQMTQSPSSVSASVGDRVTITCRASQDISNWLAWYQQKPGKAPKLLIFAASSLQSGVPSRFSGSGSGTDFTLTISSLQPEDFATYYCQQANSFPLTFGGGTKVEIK', '1.03e+06'),
  ('75110_03L12A (antibody, V domains shown, Tested here as non-clonal hybridoma supernatant from AlivaMab Mouse Kappa mice (detected with anti-mouse Fc and anti-human kappa)) VH: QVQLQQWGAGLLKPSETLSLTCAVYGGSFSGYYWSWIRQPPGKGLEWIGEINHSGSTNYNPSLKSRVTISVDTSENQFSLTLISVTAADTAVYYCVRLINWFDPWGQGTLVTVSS VL: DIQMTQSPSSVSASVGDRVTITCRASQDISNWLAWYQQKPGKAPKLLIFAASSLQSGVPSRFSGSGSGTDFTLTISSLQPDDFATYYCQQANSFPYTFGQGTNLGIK', 885000),
  ('75110_09N20A (antibody, V domains shown, Tested here as non-clonal hybridoma supernatant from AlivaMab Mouse Kappa mice (detected with anti-mouse Fc and anti-human kappa)) VH: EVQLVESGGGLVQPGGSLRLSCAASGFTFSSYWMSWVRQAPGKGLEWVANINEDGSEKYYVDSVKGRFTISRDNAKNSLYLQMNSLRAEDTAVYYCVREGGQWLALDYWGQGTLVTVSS VL: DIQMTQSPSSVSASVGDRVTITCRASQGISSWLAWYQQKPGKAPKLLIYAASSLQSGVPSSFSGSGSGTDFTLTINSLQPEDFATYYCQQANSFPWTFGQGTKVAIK', '1.76e+06'),
  ('75110_01A06A (antibody, V domains shown, Tested here as non-clonal hybridoma supernatant from AlivaMab Mouse Kappa mice (detected with anti-mouse Fc and anti-human kappa)) VH: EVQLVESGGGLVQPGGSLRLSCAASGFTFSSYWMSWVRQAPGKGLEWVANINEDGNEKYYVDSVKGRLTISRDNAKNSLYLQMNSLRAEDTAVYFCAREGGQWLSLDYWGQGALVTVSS VL: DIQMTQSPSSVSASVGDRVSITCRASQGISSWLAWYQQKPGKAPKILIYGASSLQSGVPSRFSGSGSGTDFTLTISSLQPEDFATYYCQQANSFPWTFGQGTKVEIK', '1.26e+06');
